# SUBJECT OF TEST: KRAS G12C (Homo sapiens (Human), UniProt P01116+P62937, G12C)
# Sequence (P01116-2 other isoform, or with tags, fused parts or gaps G12C): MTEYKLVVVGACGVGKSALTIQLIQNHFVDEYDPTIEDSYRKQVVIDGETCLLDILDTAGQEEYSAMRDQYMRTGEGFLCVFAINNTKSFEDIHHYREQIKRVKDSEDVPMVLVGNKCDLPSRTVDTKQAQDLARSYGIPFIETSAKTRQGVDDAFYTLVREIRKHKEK
# Sequence (P62937 whole entry): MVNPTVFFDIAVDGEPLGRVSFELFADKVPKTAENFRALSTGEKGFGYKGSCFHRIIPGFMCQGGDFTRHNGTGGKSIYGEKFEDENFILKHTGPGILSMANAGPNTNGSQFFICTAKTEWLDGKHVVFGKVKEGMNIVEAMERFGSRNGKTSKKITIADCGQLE
# RUN DESCRIPTION: Ras-Raf disruption/FRET/MOA assay, KRAS G12C
# Type: biochemical
# CONDITION NOTES: read-out: KRAS G12C FRET data IC50
pIC50: −log10 of the molar value.
Listing: pIC50 of selected compounds
METRIC NAME: pIC50

COMPOUND	SUBJECT OF TEST	RESULT
CCn1c(-c2cnccc2COC)c2c3cc(ccc31)-c1cc(O)cc(c1)C[C@H](NC(=O)[C@H](C(C)C)N(C)C(=O)c1ccc(NC(=O)[C@@H]3CN3)cn1)C(=O)N1CCC[C@H](N1)C(=O)OCC(C)(C)C2 [Example 46]	KRAS G12C (Homo sapiens (Human), UniProt P01116+P62937, G12C)	6.00 to 7.00
CCn1c(-c2cnccc2COC)c2c3cc(ccc31)-c1cc(O)cc(c1)C[C@H](NC(=O)[C@@H](CCNC(=O)NCCCl)C(C)C)C(=O)N1CCC[C@H](N1)C(=O)OCC(C)(C)C2 [Example 26]	KRAS G12C (Homo sapiens (Human), UniProt P01116+P62937, G12C)	5.00 to 6.00
CCn1c(-c2cccnc2COC)c2c3cc(ccc31)-c1cc(O)cc(c1)C[C@H](NC(=O)[C@H](C(C)C)N(C)C(=O)CNC1=NCCO1)C(=O)N1CCC[C@H](N1)C(=O)OCC(C)(C)C2 [Example 28]	KRAS G12C (Homo sapiens (Human), UniProt P01116+P62937, G12C)	5.00 to 6.00

----------
# SUBJECT OF TEST: KRAS G13C (Homo sapiens (Human), UniProt P01116+P62937, G13C)
# Sequence (P01116 other isoform, or with tags, fused parts or gaps G13C): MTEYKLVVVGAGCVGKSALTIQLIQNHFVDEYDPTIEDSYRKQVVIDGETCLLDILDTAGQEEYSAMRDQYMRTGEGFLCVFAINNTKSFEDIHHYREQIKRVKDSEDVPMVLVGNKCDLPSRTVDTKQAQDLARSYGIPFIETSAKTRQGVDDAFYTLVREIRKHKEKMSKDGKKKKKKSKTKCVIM
# Sequence (P62937 whole entry): as the sequence (P62937 whole entry) above
# RUN DESCRIPTION: Ras-Raf disruption/FRET/MOA assay (BRAF RBD, Cyclophilin A)
# Format: biochemical
# CONDITION NOTES: read-out: KRAS G13C FRET IC50
pIC50: −log10 of the molar value.
pIC50 listing for selected molecules.

SMI	SUBJECT OF TEST	pIC50
CCn1c(-c2cccnc2[C@H](C)OC)c2c3cc(ccc31)-c1csc(n1)C[C@H](NC(=O)[C@H](C(C)C)N(C)C(=O)N1C[C@@H]3[C@@H](C1)OCCN3C)C(=O)N1CCC[C@H](N1)C(=O)OCC(C)(C)C2	KRAS G13C (Homo sapiens (Human), UniProt P01116+P62937, G13C)	6.00 to 7.00
CCn1c(-c2cccnc2[C@H](C)OC)c2c3cc(ccc31)-c1csc(n1)C[C@H](NC(=O)[C@H](C(C)C)N(C)C(=O)N1CCN3C(=O)CN(C)C[C@H]3C1)C(=O)N1CCC[C@H](N1)C(=O)OCC(C)(C)C2	KRAS G13C (Homo sapiens (Human), UniProt P01116+P62937, G13C)	6.00 to 7.00
CCn1c(-c2cccnc2[C@H](C)OC)c2c3cc(ccc31)-c1cc(O)cc(c1)C[C@H](NC(=O)[C@H](C(C)C)N(C)C(=O)[C@@H]1OCC[C@@H]1c1ccccc1)C(=O)N1CCC[C@H](N1)C(=O)OCC(C)(C)C2	KRAS G13C (Homo sapiens (Human), UniProt P01116+P62937, G13C)	7.00 to 8.00
CCn1c(-c2cccnc2[C@H](C)OC)c2c3cc(ccc31)-c1cc(O)cc(c1)C[C@H](NC(=O)[C@@H]1CCCCCN1C(C)=O)C(=O)N1CCC[C@H](N1)C(=O)OCC(C)(C)C2	KRAS G13C (Homo sapiens (Human), UniProt P01116+P62937, G13C)	6.00 to 7.00
CCn1c(-c2cnccc2COC)c2c3cc(ccc31)-c1cc(O)cc(c1)C[C@H](NC(=O)[C@H](C(C)C)N(C)C(=O)[C@@H]1CNC[C@@H]1C(F)(F)F)C(=O)N1CCC[C@H](N1)C(=O)OCC(C)(C)C2	KRAS G13C (Homo sapiens (Human), UniProt P01116+P62937, G13C)	6.00 to 7.00
CCn1c(-c2cnccc2COC)c2c3cc(ccc31)-c1cc(O)cc(c1)C[C@H](NC(=O)[C@H](C(C)C)N(C)C(=O)[C@H]1CCN(C[C@@H](C)O)C1)C(=O)N1CCC[C@H](N1)C(=O)OCC(C)(C)C2	KRAS G13C (Homo sapiens (Human), UniProt P01116+P62937, G13C)	7.00 to 8.00
CCn1c(-c2cnccc2COC)c2c3cc(ccc31)-c1cc(O)cc(c1)C[C@H](NC(=O)[C@H](C(C)C)N(C)c1ncco1)C(=O)N1CCC[C@H](N1)C(=O)OCC(C)(C)C2	KRAS G13C (Homo sapiens (Human), UniProt P01116+P62937, G13C)	5.00 to 6.00
CCn1c(-c2cccnc2[C@H](C)OC)c2c3cc(ccc31)-c1csc(n1)C[C@H](NC(=O)[C@H](C(C)C)N(C)C(=O)N1CC([C@@H](C)OC)C1)C(=O)N1CCC[C@H](N1)C(=O)OCC(C)(C)C2	KRAS G13C (Homo sapiens (Human), UniProt P01116+P62937, G13C)	6.00 to 7.00
CCn1c(-c2cccnc2[C@H](C)OC)c2c3cc(ccc31)-c1cc(O)cc(c1)C[C@H](NC(=O)[C@H](C(C)C)N(C)C(=O)[C@@H]1COC[C@@H]1N)C(=O)N1CCC[C@H](N1)C(=O)OCC(C)(C)C2	KRAS G13C (Homo sapiens (Human), UniProt P01116+P62937, G13C)	7.00 to 8.00
CCn1c(-c2cccnc2[C@H](C)OC)c2c3cc(ccc31)-c1cc(O)cc(c1)C[C@H](NC(=O)[C@H](C(C)C)N(C)C(=O)[C@@H]1NC[C@@H]3C[C@@H]31)C(=O)N1CCC[C@H](N1)C(=O)OCC(C)(C)C2	KRAS G13C (Homo sapiens (Human), UniProt P01116+P62937, G13C)	7.00 to 8.00
CCn1c(-c2cccnc2[C@H](C)OC)c2c3cc(ccc31)-c1csc(n1)C[C@H](NC(=O)[C@H](C(C)C)N(C)C(=O)N1CC(N3CCC3)C1)C(=O)N1CCC[C@H](N1)C(=O)OCC(C)(C)C2	KRAS G13C (Homo sapiens (Human), UniProt P01116+P62937, G13C)	6.00 to 7.00
CCn1c(-c2cccnc2COC)c2c3cc(ccc31)-c1cc(O)cc(c1)C[C@H](NC(=O)[C@H](C(C)C)N(C)C(=O)OC1COC1)C(=O)N1CCC[C@H](N1)C(=O)OCC(C)(C)C2	KRAS G13C (Homo sapiens (Human), UniProt P01116+P62937, G13C)	6.00 to 7.00
CCn1c(-c2cccnc2[C@H](C)OC)c2c3cc(ccc31)-c1csc(n1)C[C@H](NC(=O)[C@H](C(C)C)N(C)C(=O)N1CC(OC(F)(F)F)C1)C(=O)N1CCC[C@H](N1)C(=O)OCC(C)(C)C2	KRAS G13C (Homo sapiens (Human), UniProt P01116+P62937, G13C)	6.00 to 7.00
CCn1c(-c2cccnc2[C@H](C)OC)c2c3cc(ccc31)-c1csc(n1)C[C@H](NC(=O)[C@H](C(C)C)N(C)C(=O)N1[C@H](C)COC[C@@H]1C)C(=O)N1CCC[C@H](N1)C(=O)OCC(C)(C)C2	KRAS G13C (Homo sapiens (Human), UniProt P01116+P62937, G13C)	6.00 to 7.00
CCn1c(-c2cccnc2[C@H](C)OC)c2c3cc(ccc31)-c1csc(n1)C[C@H](NC(=O)[C@H](C(C)C)N(C)C(=O)N(C)C1CN(C)C1)C(=O)N1CCC[C@H](N1)C(=O)OCC(C)(C)C2	KRAS G13C (Homo sapiens (Human), UniProt P01116+P62937, G13C)	6.00 to 7.00
CCn1c(-c2cnccc2COC)c2c3cc(ccc31)-c1cc(O)cc(c1)C[C@H](NC(=O)[C@@H](OC(=O)N1CCCC1)C(C)C)C(=O)N1CCC[C@H](N1)C(=O)OCC(C)(C)C2	KRAS G13C (Homo sapiens (Human), UniProt P01116+P62937, G13C)	< 5.00
CCn1c(-c2cccnc2[C@H](C)OC)c2c3cc(ccc31)-c1csc(n1)C[C@H](NC(=O)[C@H](C(C)C)N(C)C(=O)N1CCOC[C@H]1C)C(=O)N1CCC[C@H](N1)C(=O)OCC(C)(C)C2	KRAS G13C (Homo sapiens (Human), UniProt P01116+P62937, G13C)	6.00 to 7.00
CCn1c(-c2cccnc2[C@H](C)OC)c2c3cc(ccc31)-c1cc(O)cc(c1)C[C@H](NC(=O)[C@@H]1[C@@H](C)CCCN1C(C)=O)C(=O)N1CCC[C@H](N1)C(=O)OCC(C)(C)C2	KRAS G13C (Homo sapiens (Human), UniProt P01116+P62937, G13C)	7.00 to 8.00
